measured_on: CDK9/cyclin K (Homo sapiens, UniProt P50750)
Construct: purchased Invitrogen (ThermoFisher) PV4335
Sequence (P50750 whole entry): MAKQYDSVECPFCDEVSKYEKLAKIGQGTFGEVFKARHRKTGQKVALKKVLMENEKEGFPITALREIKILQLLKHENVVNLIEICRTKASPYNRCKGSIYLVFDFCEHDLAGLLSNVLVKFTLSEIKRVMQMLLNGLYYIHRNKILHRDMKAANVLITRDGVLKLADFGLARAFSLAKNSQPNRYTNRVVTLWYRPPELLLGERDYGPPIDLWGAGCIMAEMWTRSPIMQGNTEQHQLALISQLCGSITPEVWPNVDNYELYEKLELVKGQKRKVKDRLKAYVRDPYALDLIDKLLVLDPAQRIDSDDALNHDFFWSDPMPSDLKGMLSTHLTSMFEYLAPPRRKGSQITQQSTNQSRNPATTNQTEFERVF
Sequence (O75909 whole entry partner): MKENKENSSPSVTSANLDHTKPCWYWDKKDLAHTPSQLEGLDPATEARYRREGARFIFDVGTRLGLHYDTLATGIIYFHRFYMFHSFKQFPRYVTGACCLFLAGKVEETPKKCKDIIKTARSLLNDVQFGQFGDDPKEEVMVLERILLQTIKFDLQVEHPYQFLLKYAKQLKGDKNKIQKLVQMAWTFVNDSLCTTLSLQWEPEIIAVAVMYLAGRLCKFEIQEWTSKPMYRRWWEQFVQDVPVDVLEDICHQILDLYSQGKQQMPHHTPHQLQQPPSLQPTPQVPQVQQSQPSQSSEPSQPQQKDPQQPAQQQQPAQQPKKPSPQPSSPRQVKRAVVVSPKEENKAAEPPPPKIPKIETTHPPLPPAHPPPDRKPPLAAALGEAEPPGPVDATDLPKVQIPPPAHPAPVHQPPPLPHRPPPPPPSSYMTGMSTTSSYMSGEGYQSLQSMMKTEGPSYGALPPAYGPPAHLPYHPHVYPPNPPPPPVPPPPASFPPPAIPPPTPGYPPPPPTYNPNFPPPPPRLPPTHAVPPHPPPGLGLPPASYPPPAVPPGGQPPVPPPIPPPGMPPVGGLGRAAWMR
experimental_details: TR-FRET Lanthascreen Eu Kinase Binding assay
condition_description: in %
endpoint_name: Max Resp
Numbers only.

> print(dat)
                                smiles.data  endpoint.name  readout.value
1  Oc1cc(CNC(=S)/C=C/c2cc(O)c(O)c(Br)c2)cc(O)c1O       Max Resp           -8.3
2  CC(C)c1cc(CNc2nc(Nc3cc(C4CC4)[nH]n3)cc(N3CCN(C)CC3)n2)on1       Max Resp          -96.7
3  COc1ccccc1-c1c[nH]c2ncc(-c3cncc(C(=O)N(C)C)c3)cc12       Max Resp          -95.0
4  CCS(=O)(=O)c1cccc(-c2cc(C(=O)NC3CCN(C)CC3)c(C)c3[nH]c4ncc(C)cc4c23)c1       Max Resp          -96.3

Kindly give each listed record's Max Resp.
1. C[C@@H](Oc1ccc2[nH]nc(/C=C/c3cnn(CCO)c3)c2c1)c1c(Cl)cncc1Cl
2. CC(C)CC(=O)Nc1[nH]nc2c1CN(C(=O)C1CCN(C)CC1)C2(C)C
3. CC1(COc2ccc3c(c2)ncn3-c2ccc3cccc(N4CCC(N)CC4)c3n2)COC1
4. N#C/C(=C\c1ccc(O)c(O)c1)C(=O)NCCCNC(=O)/C(C#N)=C/c1ccc(O)c(O)c1

stdout:
-91.8
-99.5
-90.2
-83.8

* * *

So I've got a bunch of compounds here, and I need their Curve Class values.
measured_on: CDK9/cyclin K (Homo sapiens, UniProt P50750)
Construct: purchased Invitrogen (ThermoFisher) PV4335
experimental_details: TR-FRET Lanthascreen Eu Kinase Binding assay
condition_description: classifies curves by quality of fit, efficacy and number of asymptotes
Counter-ions that a name gives are not always drawn.
One number for each entry.

Solved entries (count: 5):
> print(dat)
                                   compound  readout.value
1  CC(C)c1c2cc(-c3ccnc(N[C@H]4CC[C@H](NC5CCOCC5)CC4)n3)ccc2nn1C              5
2     CN(C)c1nc2c(Br)c(Br)c(Br)c(Br)c2[nH]1           -1.1
3  N#C/C(=C1\Nc2ccccc2S1)c1ccnc(NCCc2cccnc2)n1           -1.2
4  CC(C)c1cnn2c(NCc3ccccc3)cc(N[C@@H](CO)[C@H](O)CO)nc12           -1.1
5  COc1cc(F)ccc1-c1ncnc(Nc2cccc(C[S+](C)(=N)[O-])c2)n1 (centres unmarked)           -1.2

List Curve Class for every entry below, keeping the order given.
1. O=C(O)c1ccc2c(c1)nc(Nc1cccc(Cl)c1)c1ccncc12 [CX-4945 (sodium salt)]
2. CN1CCC(c2c(O)cc(O)c3c(=O)cc(-c4ccccc4Cl)oc23)C1CO (centres unmarked)
3. N#Cc1ccnc(Nc2cc(C3CCN(C4COC4)CC3)cc(N3CCC(F)(F)C3)n2)c1

stdout:
1: -1.1; 2: -1.2; 3: -1.2

* * *

measured_on: CDK9/cyclin K (Homo sapiens, UniProt P50750)
Construct: purchased Invitrogen (ThermoFisher) PV4335
experimental_details: TR-FRET Lanthascreen Eu Kinase Binding assay
condition_description: difference between highest and lowest activity across concentration range; in %
endpoint_name: Efficacy
Numbers only.

Solved entries:
> print(dat)
                                smiles.data  endpoint.name  readout.value
1  O=C1Nc2ccc3ncsc3c2/C1=C/Nc1ccc([S+](=O)([O-])Nc2ccccn2)cc1       Efficacy          -99.4
2  CN(C)C/C=C/C(=O)Nc1cccc(C(=O)Nc2ccc(Nc3nccc(-c4cccnc4)n3)cc2)c1       Efficacy          -86.0
3  N#CCNC(=O)c1ccc(-c2ccnc(Nc3ccc(N4CCOCC4)cc3)n2)cc1       Efficacy          -85.8

Moving on to the next molecule.
stdin: Name the recorded Efficacy for Cc1cc(CN2CCN(c3c(Br)cnc4[nH]c(-c5ccc(N6CCN(C)CC6)cc5)nc34)CC2)no1 .
stdout: -77.1
